Where these numbers come from: PubChem BioAssay (NCI)

tested on: SK-OV-3 ovarian; assay: NCI tumour cell line growth inhibition, 48 h
Hi, to clarify the labels: 1 covers TGI from 40 µM upward, -1 covers anything below 40 µM.

compound	class assignment
CC(C)(C)C1=C(Br)C(O)(C(C)(C)C)OP1(=O)c1ccccc1 (stereo unspecified)	1
CCOC(=O)C(Cc1ccc(N(CCCl)CCCl)cc1)NC(=O)C(Cc1ccccc1)NC=O (stereo unspecified)	-1
O=C(NC(=O)c1c(Cl)nc2sccn12)Nc1ccc(Cl)cc1	1
Cc1ccc(-c2nc(/C=N/Nc3cc(C)nc4ccc(Cl)cc34)c(C)o2)cc1	-1
O=C1/C(=C/c2ccc(F)cc2)CN(C(=O)CCN2CCC(=NO)CC2)C/C1=C\c1ccc(F)cc1	-1
O=c1c2ccccc2nc2ccc3c(Cl)[nH][nH]c3c12	1
CCCCCC(=O)Nc1nc2nc[nH]c2c(=O)[nH]1	1
N#Cc1c(N)nc2c3c1NC(=O)C(C(N)=O)C3c1ccccc1O2 (stereo unspecified)	1
C#Cc1cccc(Nc2nc(Cl)nc3cc(NC(=O)CCl)ccc23)c1	-1
CC1=CCC[C@H]2[C@](C)(CC3=CC(=O)C(SCC(C)C)=CC3=O)[C@@H](C)CC[C@]12C	-1
CC1CCC2(OC1)OC1C(O)C3C4CCC5CC(OC6OC(CO)C(OC7OC(CO)C(O)C(OC8OCC(O)C(O)C8O)C7OC7OC(CO)C(O)C(OC8OC(CO)C(O)C(O)C8O)C7O)C(O)C6O)C(O)CC5(C)C4CCC3(C)C1C2C (stereo unspecified)	-1
COC(=O)Nc1nc2ccc(NC(=O)c3ccc(I)cc3)cc2[nH]1	1
Cc1cc(N(CCOS(C)(=O)=O)CCOS(C)(=O)=O)ccc1C(=O)O	1
Cc1ccc(N=C[N-]c2ccc(C)cc2)cc1.Cc1ccc(N=C[N-]c2ccc(C)cc2)cc1.O=C([O-])C(F)(F)F.O=C([O-])C(F)(F)F.[OH3+].[OH3+].[Rh+2].[Rh+2]	1
NC1c2ccccc2Nc2ccccc21	-1
Nc1c(S(=O)(=O)O)cc(S(=O)(=O)O)c2ccc(N=Nc3ccc(/C=C/c4ccc(N=Nc5ccc6c(S(=O)(=O)O)cc(S(=O)(=O)O)c(N)c6c5O)cc4S(=O)(=O)O)c(S(=O)(=O)O)c3)c(O)c12	1
COc1ccccc1NC(=O)C1=C(C)NC(C)=C(C(=O)Nc2ccccc2OC)C1/C=C/c1ccccc1	1
CCN(CC)CCCC(C)Nc1cc(-c2cccc(OC(F)(F)F)c2)nc2ccc(N3CCCC3)cc12 (stereo unspecified)	1
O=c1[nH]c(=O)n(C2OC(CO)C(O)C2O)cc1OCCCc1ccccc1 (stereo unspecified)	1

----------
TGI values, listed per item
system: NCI-H522 lung; assay: NCI tumour cell line growth inhibition, 48 h
reported property: TGI

compound	recorded measurement
O=C(OCc1ccccc1)N1CCNCCNCCN(C(=O)OCc2ccccc2)CCNCC1	31.4 µM
O=[N+]([O-])c1ccc(Cl)c(CNc2ncnc3c2ncn3C2CCCCO2)c1 (stereo unspecified)	> 100 µM
O=c1c2ccccc2nc2ccc3c(Cl)[nH][nH]c3c12	> 83.1 µM
CC(C)(C)C1=C(Br)C(O)(C(C)(C)C)OP1(=O)c1ccccc1 (stereo unspecified)	> 100 µM
O=C1NC(Cc2ccc(O)cc2)C(=O)NC1Cc1ccc(O)cc1 (stereo unspecified)	> 100 µM
CCOC1=C(c2ccccc2)N2CCCCC2O1 (stereo unspecified)	13.4 µM

----------
tested on: NCI/ADR-RES ovarian; assay: NCI tumour cell line growth inhibition, 48 h
TGI values, listed per item
reported property: TGI

molecule	reported property	recorded measurement
O=C(Nc1nn[nH]n1)c1nc(-c2ccccc2)cc(=O)[nH]1	TGI	> 100 µM
CCOC(=O)c1cc(Br)c(-c2onc(C)c2Br)[nH]1	TGI	> 100 µM
CC(=O)OC12C=C(C)C(C(C)C1)C1C(=O)N(CCN3CCCCC3)C(=O)C12 (stereo not given)	TGI	> 50 µM
CC(C)=CCC[C@@H](C)C1=C(O)C(Nc2ccccc2I)=C(C)C(=O)C1=O	TGI	> 17.6 µM
COc1cc2nc(-c3cccs3)nc(Nc3cccc(Cl)c3)c2cc1OC	TGI	> 100 µM
O=C(c1ccc(Cl)cc1)N1CCN=C1c1cc2ccccc2c2ccccc12	TGI	33.3 µM
OC(NN=C1CCCC1)(C(F)(F)Cl)C(F)(F)Cl	TGI	> 10 µM
CC(C)(C)OC(=O)c1ccc(NCC2=C(Br)C(=O)C=CC2=O)cc1	TGI	62.9 µM
CCCCCCCCC#CCCCCCCCCCC[C@@H]1C(=O)O[C@H](C)[C@@H]1O (tested in a mixture with another compound)	TGI	23.8 µM
COc1ccccc1C1C(C#N)=C(N)Oc2n[nH]c(C)c21 (stereo not given)	TGI	> 100 µM

----------
GI50 values, listed per item
system: UACC-257 melanoma; assay: NCI tumour cell line growth inhibition, 48 h

molecule	GI50
COc1ccc(C(=O)c2cc(C)c(OC)c(C)c2)c(OC)c1NC(C)=O	> 100 µM
N#CC1=C(N)Oc2c(ccc3ccccc23)C1c1cc(=O)oc2ccc(Cl)cc12 (stereo unspecified)	14.4 µM
Cc1c(C#N)cccc1[C@@H](C)Nc1nnc(C)c2cnc(N3CCOCC3)cc12	26.4 µM
O=C(Nc1ccccc1I(=O)=O)C1CCCCC1	> 100 µM
O=C1/C(=C/c2ccc(F)cc2)CN(C(=O)CCN2CCC(=NO)CC2)C/C1=C\c1ccc(F)cc1	2.4 µM
O=C(NNc1ccc(Cl)cc1)C1CCC(CNS(=O)(=O)c2ccccc2Cl)CC1 (stereo unspecified)	17.1 µM

----------
TGI values, listed per item
system: SW-620 colon; test: NCI tumour cell line growth inhibition, 48 h

compound	TGI
CCOC(=O)C(Cc1ccc(N(CCCl)CCCl)cc1)NC(=O)C(Cc1ccccc1)NC=O (stereo not drawn)	0.414 µM
COC1=CC(=O)N(C)C(O)C1(C#N)OC1OC(CO)C(O)C(O)C1O (stereo not drawn)	> 100 µM
Nc1c(S(=O)(=O)O)cc(S(=O)(=O)O)c2ccc(N=Nc3ccc(/C=C/c4ccc(N=Nc5ccc6c(S(=O)(=O)O)cc(S(=O)(=O)O)c(N)c6c5O)cc4S(=O)(=O)O)c(S(=O)(=O)O)c3)c(O)c12	> 100 µM

----------
system: PC-3 prostate; experiment: NCI tumour cell line growth inhibition, 48 h
TGI values, listed per item
reported property: TGI

compound	test target	reported property	recorded measurement
CCOC(=O)C(Cc1ccc(N(CCCl)CCCl)cc1)NC(=O)C(Cc1ccccc1)NC=O (stereo unspecified)	PC-3 prostate	TGI	0.406 µM
O=C(NCCCc1cn[nH]c1)c1ccc(-c2ccncc2)c(C#Cc2ccc(F)cc2)c1	PC-3 prostate	TGI	76.8 µM
COC(=O)Cn1cnc2c(Cl)nc(Nc3ccccc3)nc21	PC-3 prostate	TGI	> 100 µM
Oc1ccc(Oc2cc3c(cc2Oc2ccc(O)cc2)-c2nc-3nc3[nH]c(nc4nc(nc5[nH]c(n2)c2cc(Oc6ccc(O)cc6)c(Oc6ccc(O)cc6)cc52)-c2cc(Oc5ccc(O)cc5)c(Oc5ccc(O)cc5)cc2-4)c2cc(Oc4ccc(O)cc4)c(Oc4ccc(O)cc4)cc32)cc1	PC-3 prostate	TGI	> 100 µM
Cc1c([C@H](C)[C@@H]2NC[C@@H](C)C[C@H]2O)ccc2c1C[C@H]1[C@H]2CC=C2C[C@@H](O)CC[C@@]21C	PC-3 prostate	TGI	32.1 µM
CC(=O)OC12C=C(C)C(C(C)C1)C1C(=O)N(CCN3CCCCC3)C(=O)C12 (stereo unspecified)	PC-3 prostate	TGI	> 50 µM
CCN(CC)C(=O)Cn1c2c(c3ccccc31)CCCC2	PC-3 prostate	TGI	> 100 µM
CS(=O)(=O)c1ccc(Nc2nc(N[C@H]3CCCC[C@H]3N)nc3cc[nH]c(=O)c23)cc1	PC-3 prostate	TGI	> 100 µM
COc1ccc(-c2nc(-c3nc4ccc(C)cc4[nH]3)cc3c2[nH]c2ccccc23)cc1	PC-3 prostate	TGI	> 100 µM
O=C1NC(N2CCOCC2)=N/C1=C\c1ccc(O)cc1	PC-3 prostate	TGI	> 100 µM
Cc1cc(S(=O)(=O)/N=C(/NN)Nc2ccc(Cl)cc2)c(S)cc1Cl	PC-3 prostate	TGI	> 100 µM
S=C1SC(=Nc2ccccc2)C(=Nc2ccccc2)N1c1ccc2ccccc2c1	PC-3 prostate	TGI	> 100 µM
NC(N)=NC1C(O)C(O)C(O)C(N=C(N)N)C1O (stereo unspecified)	PC-3 prostate	TGI	> 100 µM
CC(C)(C)C1=C(Br)C(O)(C(C)(C)C)OP1(=O)c1ccccc1 (stereo unspecified)	PC-3 prostate	TGI	> 100 µM
NC(=O)CN1C=CCC(C(N)=O)=C1	PC-3 prostate	TGI	> 100 µM
COc1ccc2cc(C(C)C(=O)N3C(=O)OCC3(C)C)ccc2c1 (stereo unspecified)	PC-3 prostate	TGI	> 100 µM
CCN(CC)CCCC(C)Nc1cc(-c2cccc(OC(F)(F)F)c2)nc2ccc(N3CCCC3)cc12 (stereo unspecified)	PC-3 prostate	TGI	> 49.5 µM
COC(=O)Nc1nc2ccc(NC(=O)c3ccc(I)cc3)cc2[nH]1	PC-3 prostate	TGI	> 100 µM
CC1(C)Oc2ccc3c(=O)cc(-c4ccccc4)oc3c2C1C(=O)O (stereo unspecified)	PC-3 prostate	TGI	> 100 µM
O=[N+]([O-])/C(C(Cl)=C(Cl)Cl)=C(/Nc1cccc2cccnc12)n1nnc2ccccc21	PC-3 prostate	TGI	51.3 µM
COc1nc(C#CC2CCCCC2)nc(OC)n1	PC-3 prostate	TGI	16.3 µM
